Biological target: B. subtilis pol IIIC (Bacillus subtilis)
Construct: made in house
Assay: DNA polymerase assay, B. subtilis pol IIIC
Format: biochemical
Details: 80 μg/mL (190-260 μM) final concentration; all four dNTPs; read-out: Percent Enzymatic Inhibition B. subtilis pol IIIC
reported_endpoint: inhibition at 80 µg/mL (%)
Report only the number, with the unit % understood.

>>> df
                                  structure  readout_value
0  COc1ccc(-c2cc(C(=O)NN=Cc3ccc(O)cc3)[nH]n2)cc1            9.9
1  COc1cc(C=NNC(=O)c2cc(-c3ccccc3)n[nH]2)ccc1O            4.8
2  COc1cc(C=NNC(=O)c2cc(-c3ccccc3)n[nH]2)cc(OC)c1OC           14.3
3  O=C(NN=Cc1ccc(O)cc1O)c1cc(-c2ccccc2)n[nH]1           15.8

Attention now turns to another entry.
Recorded inhibition at 80 µg/mL of CCOc1cc(C=NNC(=O)c2cc(-c3cccc(OC)c3)n[nH]2)ccc1O , please.
5.3

----------
compounds and their reported MIC
Test system: methicillin-resistant S. aureus strain 1094
Experiment: Inhibition of bacterial growth (MIC), MRSA
Type: cell-based, Staphylococcus aureus
Settings: Staphylococcus aureus, MRSA, 16 to 18 hours, 37° C., read-out: Minimum Inhibitory Concentration for Bacterial Growth, MRSA

Example results:
In [3]: df
Out[3]:
                                  structure  readout_value
0  CCOc1ccc(-c2cc(C(=O)NN=Cc3ccc(O)c(OC)c3)[nH]n2)cc1         5 mg/L
1  COc1ccc(-c2cc(C(=O)NN=Cc3ccc(O)cc3)[nH]n2)cc1      > 80 mg/L

# get_value(readout= MIC, system= methicillin-resistant S. aureus strain 1094) for CCOc1cc(C=NNC(=O)c2cc(-c3cccc(OC)c3)n[nH]2)ccc1O
40 mg/L

# get_value(readout= MIC, system= methicillin-resistant S. aureus strain 1094) for COc1ccc(-c2cc(C(=O)NN=Cc3cc(OC)c(OC)c(OC)c3)[nH]n2)cc1
2.5 mg/L

# get_value(readout= MIC, system= methicillin-resistant S. aureus strain 1094) for COc1cc(C=NNC(=O)c2cc(-c3ccccc3)n[nH]2)ccc1O
40 mg/L

----------
Biological target: B. subtilis pol IIIE (Bacillus subtilis, UniProt O34623)
Construct: made in house
Sequence (O34623 whole entry): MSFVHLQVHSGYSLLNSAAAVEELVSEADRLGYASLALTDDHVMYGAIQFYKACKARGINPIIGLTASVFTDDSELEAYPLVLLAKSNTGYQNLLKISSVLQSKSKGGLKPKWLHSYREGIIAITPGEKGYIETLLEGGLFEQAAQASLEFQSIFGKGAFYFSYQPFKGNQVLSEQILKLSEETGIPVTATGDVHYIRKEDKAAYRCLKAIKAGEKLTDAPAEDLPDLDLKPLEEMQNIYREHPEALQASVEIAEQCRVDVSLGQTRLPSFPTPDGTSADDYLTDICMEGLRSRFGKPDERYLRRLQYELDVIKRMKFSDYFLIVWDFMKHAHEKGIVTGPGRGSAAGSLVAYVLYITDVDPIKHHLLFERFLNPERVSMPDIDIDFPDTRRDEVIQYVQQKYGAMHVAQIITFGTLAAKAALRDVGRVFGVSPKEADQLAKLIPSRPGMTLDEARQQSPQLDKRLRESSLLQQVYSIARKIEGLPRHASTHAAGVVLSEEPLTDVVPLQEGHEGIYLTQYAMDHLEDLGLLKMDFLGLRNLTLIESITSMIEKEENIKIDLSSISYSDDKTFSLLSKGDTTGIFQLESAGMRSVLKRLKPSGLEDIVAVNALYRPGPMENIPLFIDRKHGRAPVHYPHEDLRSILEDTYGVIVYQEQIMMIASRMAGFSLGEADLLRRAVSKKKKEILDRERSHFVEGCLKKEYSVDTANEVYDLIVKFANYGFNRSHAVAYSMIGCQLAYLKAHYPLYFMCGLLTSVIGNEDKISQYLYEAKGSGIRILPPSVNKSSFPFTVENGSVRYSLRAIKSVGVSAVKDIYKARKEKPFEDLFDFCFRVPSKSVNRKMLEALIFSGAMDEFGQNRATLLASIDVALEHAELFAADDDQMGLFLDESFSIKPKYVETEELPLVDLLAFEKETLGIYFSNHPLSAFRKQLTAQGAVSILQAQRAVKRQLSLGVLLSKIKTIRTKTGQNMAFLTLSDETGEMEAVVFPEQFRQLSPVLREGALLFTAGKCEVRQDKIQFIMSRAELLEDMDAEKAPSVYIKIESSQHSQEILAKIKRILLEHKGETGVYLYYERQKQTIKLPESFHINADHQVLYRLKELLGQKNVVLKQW
Assay: DNA polymerase assay, B. subtilis pol IIIE
Assay type: biochemical
Settings: B. subtilis Pol IIIE IC50, −dGTP, in the absence of dGTP
reported_endpoint: IC50 (µM)
Report only the number, with the unit µM understood.

In [3]: df
Out[3]:
                                  structure                               target_desc  reported_endpoint  readout_value
0  COc1cccc(-c2cc(C(=O)NN=Cc3ccc(OC)c(OC)c3)[nH]n2)c1  B. subtilis pol IIIE (Bacillus subtilis, UniProt O34623)               IC50             78
1  COc1cc(C=NNC(=O)c2cc(-c3ccccc3)n[nH]2)ccc1O  B. subtilis pol IIIE (Bacillus subtilis, UniProt O34623)               IC50            111
2  O=C(NN=Cc1ccc(O)cc1O)c1cc(-c2ccccc2)n[nH]1  B. subtilis pol IIIE (Bacillus subtilis, UniProt O34623)               IC50            183
3  CCOc1cc(C=NNC(=O)c2cc(-c3cccc(OC)c3)n[nH]2)ccc1O  B. subtilis pol IIIE (Bacillus subtilis, UniProt O34623)               IC50            311
4  COc1ccc(-c2cc(C(=O)NN=Cc3ccc(O)cc3)[nH]n2)cc1  B. subtilis pol IIIE (Bacillus subtilis, UniProt O34623)               IC50            318

Attention now turns to another entry.
Recorded IC50 of COc1cc(C=NNC(=O)c2cc(-c3ccccc3)n[nH]2)cc(OC)c1OC , please.
51

----------
molecules and their reported IC50
Target: B. subtilis pol IIIC (Bacillus subtilis, UniProt P13267)
Construct: made in house
Sequence (P13267 whole entry): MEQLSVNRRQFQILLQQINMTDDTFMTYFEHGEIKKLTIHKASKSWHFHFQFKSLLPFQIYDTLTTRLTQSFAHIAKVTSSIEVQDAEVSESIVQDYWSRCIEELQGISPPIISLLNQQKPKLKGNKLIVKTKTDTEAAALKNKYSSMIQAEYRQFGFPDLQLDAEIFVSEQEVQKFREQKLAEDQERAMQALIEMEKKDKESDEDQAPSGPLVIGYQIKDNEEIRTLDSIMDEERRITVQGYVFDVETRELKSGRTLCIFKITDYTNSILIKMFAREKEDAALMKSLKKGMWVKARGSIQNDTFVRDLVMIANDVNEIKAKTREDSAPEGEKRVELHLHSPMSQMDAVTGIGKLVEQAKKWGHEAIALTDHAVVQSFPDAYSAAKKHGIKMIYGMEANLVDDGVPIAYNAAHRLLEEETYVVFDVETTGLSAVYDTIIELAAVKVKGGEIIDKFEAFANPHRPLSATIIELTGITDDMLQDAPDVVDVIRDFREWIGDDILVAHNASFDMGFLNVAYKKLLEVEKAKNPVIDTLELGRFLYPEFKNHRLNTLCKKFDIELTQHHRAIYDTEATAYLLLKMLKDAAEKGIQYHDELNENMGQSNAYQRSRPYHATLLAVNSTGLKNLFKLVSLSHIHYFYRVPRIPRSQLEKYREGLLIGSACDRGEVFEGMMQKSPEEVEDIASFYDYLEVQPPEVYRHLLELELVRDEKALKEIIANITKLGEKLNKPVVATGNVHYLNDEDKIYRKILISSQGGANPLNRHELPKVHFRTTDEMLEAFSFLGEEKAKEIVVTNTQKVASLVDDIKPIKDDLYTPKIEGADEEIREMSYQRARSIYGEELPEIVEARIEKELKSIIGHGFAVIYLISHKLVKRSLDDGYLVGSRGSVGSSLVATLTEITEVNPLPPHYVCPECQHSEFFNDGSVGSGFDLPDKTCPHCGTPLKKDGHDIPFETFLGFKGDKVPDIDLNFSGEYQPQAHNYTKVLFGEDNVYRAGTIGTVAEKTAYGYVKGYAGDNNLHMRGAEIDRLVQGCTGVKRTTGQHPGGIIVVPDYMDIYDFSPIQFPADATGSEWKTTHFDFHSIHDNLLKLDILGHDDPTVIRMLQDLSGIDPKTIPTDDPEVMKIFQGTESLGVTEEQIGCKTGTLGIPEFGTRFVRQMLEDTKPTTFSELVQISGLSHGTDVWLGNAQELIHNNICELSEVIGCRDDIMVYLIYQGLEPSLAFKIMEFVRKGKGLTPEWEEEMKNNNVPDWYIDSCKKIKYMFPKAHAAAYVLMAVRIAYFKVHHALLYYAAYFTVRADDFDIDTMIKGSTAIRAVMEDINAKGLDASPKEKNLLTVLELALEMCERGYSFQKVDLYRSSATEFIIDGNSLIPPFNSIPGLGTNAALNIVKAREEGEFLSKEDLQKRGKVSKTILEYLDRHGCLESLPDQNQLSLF
Experiment: DNA polymerase assay, B. subtilis pol IIIC
Assay type: biochemical
Details: B. subtilis Pol IIIC IC50, −dCTP, in the absence of dCTP
Report only the number, with the unit µM understood.

Example results:
>>> print(df.to_string())
                                  structure                               target_desc  readout_value
0  COc1cc(C=NNC(=O)c2cc(-c3ccccc3)n[nH]2)ccc1O  B. subtilis pol IIIC (Bacillus subtilis, UniProt P13267)            265
1  O=C(NN=Cc1ccc(O)cc1O)c1cc(-c2ccccc2)n[nH]1  B. subtilis pol IIIC (Bacillus subtilis, UniProt P13267)            228
2  COc1cccc(-c2cc(C(=O)NN=Cc3ccc(OC)c(OC)c3)[nH]n2)c1  B. subtilis pol IIIC (Bacillus subtilis, UniProt P13267)            287
3  CCOc1cc(C=NNC(=O)c2cc(-c3cccc(OC)c3)n[nH]2)ccc1O  B. subtilis pol IIIC (Bacillus subtilis, UniProt P13267)            563

# get_value(readout= IC50, system= B. subtilis pol IIIC (Bacillus subtilis, UniProt P13267)) for COc1ccc(-c2cc(C(=O)NN=Cc3ccc(O)cc3)[nH]n2)cc1
96

----------
Biological target: B. subtilis pol IIIE (Bacillus subtilis, UniProt O34623)
Construct: made in house
Experiment: DNA polymerase assay, B. subtilis pol IIIE
Assay type: biochemical
Settings: B. subtilis Pol IIIE IC50, 4 dNTPs, in the presence of all four dNTP substrates
Note to self: use T only for IC50 readings below 300 µM; a reading exactly at 300 µM still gets F.

API: query returns whether the compound falls strictly under 300 µM in IC50. Query: COc1ccc(-c2cc(C(=O)NN=Cc3ccc(OC)c(OC)c3)[nH]n2)cc1
T

API: query returns whether the compound falls strictly under 300 µM in IC50. Query: COc1cc(C=NNC(=O)c2cc(-c3ccccc3)n[nH]2)ccc1O
T

API: query returns whether the compound falls strictly under 300 µM in IC50. Query: COc1ccc(-c2cc(C(=O)NN=Cc3cc(OC)c(OC)c(OC)c3)[nH]n2)cc1
F

API: query returns whether the compound falls strictly under 300 µM in IC50. Query: O=C(NN=Cc1ccc(O)cc1O)c1cc(-c2ccccc2)n[nH]1
F

API: query returns whether the compound falls strictly under 300 µM in IC50. Query: COc1cccc(-c2cc(C(=O)NN=Cc3ccc(OC)c(OC)c3)[nH]n2)c1
F

API: query returns whether the compound falls strictly under 300 µM in IC50. Query: COc1cc(C=NNC(=O)c2cc(-c3ccccc3)n[nH]2)cc(OC)c1OC
T

API: query returns whether the compound falls strictly under 300 µM in IC50. Query: CCOc1ccc(-c2cc(C(=O)NN=Cc3ccc(O)c(OC)c3)[nH]n2)cc1
F

----------
Target: B. subtilis pol IIIC (Bacillus subtilis)
Construct: made in house
Assay: DNA polymerase assay, B. subtilis pol IIIC
Assay type: biochemical
Settings: B. subtilis Pol IIIC IC50, −dCTP, in the absence of dCTP
molecules and their reported pIC50
pIC50 (log units): -log10 of the concentration in mol/L.

In [3]: df
Out[3]:
                                  structure  readout_value
0  COc1ccc(-c2cc(C(=O)NN=Cc3ccc(OC)c(OC)c3)[nH]n2)cc1           5.19
1  COc1ccc(-c2cc(C(=O)NN=Cc3cc(OC)c(OC)c(OC)c3)[nH]n2)cc1           5.59
2  CCOc1ccc(-c2cc(C(=O)NN=Cc3ccc(O)c(OC)c3)[nH]n2)cc1           5.48

Attention now turns to another entry.
# get_value(readout= pIC50, system= B. subtilis pol IIIC (Bacillus subtilis)) for COc1cc(C=NNC(=O)c2cc(-c3ccccc3)n[nH]2)cc(OC)c1OC
4.36

----------
Biological target: B. subtilis pol IIIC (Bacillus subtilis, UniProt P13267)
Construct: made in house
Experiment: DNA polymerase assay, B. subtilis pol IIIC
Assay type: biochemical
Conditions: B. subtilis Pol IIIC IC50, 4 dNTPs, in the presence of all four dNTP substrates
compounds and their reported IC50
Report only the number, with the unit µM understood.

Example results:
In [3]: df
Out[3]:
                                  structure  reported_endpoint  readout_value
0  COc1ccc(-c2cc(C(=O)NN=Cc3cc(OC)c(OC)c(OC)c3)[nH]n2)cc1               IC50             36
1  COc1ccc(-c2cc(C(=O)NN=Cc3ccc(OC)c(OC)c3)[nH]n2)cc1               IC50            912
2  COc1cc(C=NNC(=O)c2cc(-c3ccccc3)n[nH]2)cc(OC)c1OC               IC50            188

Attention now turns to another entry.
Recorded IC50 of CCOc1ccc(-c2cc(C(=O)NN=Cc3ccc(O)c(OC)c3)[nH]n2)cc1 , please.
23
